Data provenance is patent US20250034269A1.

A collection of binders and their measured rel. fit bottom (OD)
- Study Target: T1, dimeric human LTBR-Fc biotinylated (P1AE2401) (human, UniProt P36941 31-227, biotinylated in vitro)
- T1 construct: bought from R&D Systems (7538-LR); also called human LTBR ECD; not shown: human IgG1 Fc-Fragment
- Assay Name: competition ELISA vs human LIGHT

{"Binder": "P1AE9450 (antibody, human IgG1, kappa, L234A L235A, V domains shown, human IgG1 PG LALA; from transgenic rabbit immunization; also called LTBR (9450)) VH: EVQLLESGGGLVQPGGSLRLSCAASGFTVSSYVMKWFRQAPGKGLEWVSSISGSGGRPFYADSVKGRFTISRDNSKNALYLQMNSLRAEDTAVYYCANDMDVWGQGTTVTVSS VL: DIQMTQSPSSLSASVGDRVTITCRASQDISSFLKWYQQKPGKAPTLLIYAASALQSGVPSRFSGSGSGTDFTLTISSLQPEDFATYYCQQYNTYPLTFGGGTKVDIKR", "rel. fit bottom (OD)": 0.4}
{"Binder": "P1AF0079 (antibody, human IgG1, kappa, L234A L235A, V domains shown, human IgG1 PG LALA; from transgenic rabbit immunization; also called LTBR (0079)) VH: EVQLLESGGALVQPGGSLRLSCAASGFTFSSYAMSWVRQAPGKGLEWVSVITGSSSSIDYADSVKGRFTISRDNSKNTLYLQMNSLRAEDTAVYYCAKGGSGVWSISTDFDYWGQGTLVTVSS VL: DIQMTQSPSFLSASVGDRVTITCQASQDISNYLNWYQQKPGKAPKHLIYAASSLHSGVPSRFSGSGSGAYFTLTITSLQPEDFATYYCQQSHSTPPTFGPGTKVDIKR", "rel. fit bottom (OD)": 0.3}
{"Binder": "P1AE9457 (antibody, human IgG1, kappa, L234A L235A, V domains shown, human IgG1 PG LALA; from transgenic rabbit immunization; also called LTBR (9457)) VH: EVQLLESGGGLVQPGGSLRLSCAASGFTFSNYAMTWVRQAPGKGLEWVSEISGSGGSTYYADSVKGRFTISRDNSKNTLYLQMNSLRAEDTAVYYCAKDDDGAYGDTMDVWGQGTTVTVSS VL: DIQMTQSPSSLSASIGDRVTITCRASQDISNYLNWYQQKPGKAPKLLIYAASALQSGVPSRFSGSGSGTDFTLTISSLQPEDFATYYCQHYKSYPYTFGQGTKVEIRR", "rel. fit bottom (OD)": 0.9}
